All figures here come from patent US10280149B2.

target: Full length KDM2B (Homo sapiens (Human), UniProt Q8NHM5)
Sequence (Q8NHM5 whole entry): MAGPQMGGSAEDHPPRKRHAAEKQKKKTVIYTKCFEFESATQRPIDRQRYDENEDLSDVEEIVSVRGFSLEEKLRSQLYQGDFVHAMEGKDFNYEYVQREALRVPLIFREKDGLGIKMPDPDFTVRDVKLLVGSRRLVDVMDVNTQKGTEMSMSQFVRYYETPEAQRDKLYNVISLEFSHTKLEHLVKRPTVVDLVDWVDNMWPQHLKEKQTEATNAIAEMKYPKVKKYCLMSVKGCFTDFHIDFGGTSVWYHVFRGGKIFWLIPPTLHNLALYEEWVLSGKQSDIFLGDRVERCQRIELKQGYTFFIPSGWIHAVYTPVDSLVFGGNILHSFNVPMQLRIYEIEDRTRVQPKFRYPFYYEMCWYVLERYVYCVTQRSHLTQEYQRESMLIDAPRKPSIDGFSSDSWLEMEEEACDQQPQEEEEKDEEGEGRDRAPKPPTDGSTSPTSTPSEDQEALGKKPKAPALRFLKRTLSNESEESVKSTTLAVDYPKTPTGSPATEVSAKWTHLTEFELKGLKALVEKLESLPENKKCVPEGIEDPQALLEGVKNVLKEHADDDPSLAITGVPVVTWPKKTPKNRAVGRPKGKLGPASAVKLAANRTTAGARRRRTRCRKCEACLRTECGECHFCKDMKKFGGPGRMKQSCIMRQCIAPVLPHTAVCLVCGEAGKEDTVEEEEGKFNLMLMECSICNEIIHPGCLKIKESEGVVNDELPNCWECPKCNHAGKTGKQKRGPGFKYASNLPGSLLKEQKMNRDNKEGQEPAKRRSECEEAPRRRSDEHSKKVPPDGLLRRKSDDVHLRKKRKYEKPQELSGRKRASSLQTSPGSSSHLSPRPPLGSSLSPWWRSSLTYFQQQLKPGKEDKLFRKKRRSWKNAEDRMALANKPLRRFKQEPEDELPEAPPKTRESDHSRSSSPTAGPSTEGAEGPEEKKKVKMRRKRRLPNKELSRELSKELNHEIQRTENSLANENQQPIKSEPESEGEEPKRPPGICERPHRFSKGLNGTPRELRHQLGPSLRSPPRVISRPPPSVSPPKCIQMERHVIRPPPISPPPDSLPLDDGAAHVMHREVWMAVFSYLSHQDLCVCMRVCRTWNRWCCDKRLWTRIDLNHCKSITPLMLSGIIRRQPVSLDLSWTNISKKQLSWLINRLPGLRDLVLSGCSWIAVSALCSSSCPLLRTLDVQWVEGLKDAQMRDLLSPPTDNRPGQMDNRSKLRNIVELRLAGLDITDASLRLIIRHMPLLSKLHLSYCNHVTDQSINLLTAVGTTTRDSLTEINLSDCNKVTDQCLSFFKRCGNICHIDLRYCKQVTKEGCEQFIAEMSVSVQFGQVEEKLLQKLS
pIC50: −log10 of the molar value.
measurement label: pIC50

> print(dat)
                                    compound                              assay.system  observed.measurement
 1  O=C(c1cccc(Cl)c1)C1CCCN(C2CCCC2)C1 (stereo not drawn)  Full length KDM2B (Homo sapiens (Human), UniProt Q8NHM5)                  4.64
 2  COc1cccc(C(=O)[C@@H]2CCCN(CC3CC3)C2)c1 (stereo in doubt) [Example 109a]  Full length KDM2B (Homo sapiens (Human), UniProt Q8NHM5)                  4.85
 3  COc1ccc2cc(C(=O)C3CN(C4CCC4)CCN3Cc3ccc(C)cc3)ccc2c1 (stereo not drawn)  Full length KDM2B (Homo sapiens (Human), UniProt Q8NHM5)                  6.86
 4  NC(=O)c1cc(C(=O)C2CCCN(C3CCCC3)C2)cc2ccccc12 (stereo not drawn)  Full length KDM2B (Homo sapiens (Human), UniProt Q8NHM5)                  6.68
 5  CCCN1CCCC(C(=O)c2ccc3c(c2)OCCO3)C1 (stereo not drawn)  Full length KDM2B (Homo sapiens (Human), UniProt Q8NHM5)                  6.53
 6  COc1ccc2cc(C(=O)[C@H]3C[C@@H](C)CN(CC4CC4)C3)ccc2c1 (single isomer, unassigned) [Example 139a]  Full length KDM2B (Homo sapiens (Human), UniProt Q8NHM5)                  6.48
 7  CC(O)c1cc(C(=O)C2CCCN(C3CCCC3)C2)cc2ccccc12 (stereo not drawn)  Full length KDM2B (Homo sapiens (Human), UniProt Q8NHM5)                  6.82
 8  COc1ccc2cc(C(=O)C3CCCN(C4CCC4)C3)ccc2c1C (stereo not drawn)  Full length KDM2B (Homo sapiens (Human), UniProt Q8NHM5)                  7.40
 9  CCCN1CCCC(C(=O)c2ccc3c(c2)CCCC3)C1 (stereo not drawn)  Full length KDM2B (Homo sapiens (Human), UniProt Q8NHM5)                  7.00
10  CCCN1CCCC(C(=O)c2cc(OC)cc(OC)c2)C1 (stereo not drawn)  Full length KDM2B (Homo sapiens (Human), UniProt Q8NHM5)                  6.57
11  COc1ccc2cc(C(=O)[C@H]3CN(C4CCC4)CC[C@H]3C)ccc2c1CC#N (stereo in doubt) [Example 182a]  Full length KDM2B (Homo sapiens (Human), UniProt Q8NHM5)                  6.54
12  COc1ccc2cc(C(=O)[C@H]3CN(C4CCC4)CC[C@H]3C(C)C)ccc2c1 (single isomer, unassigned) [Example 143b]  Full length KDM2B (Homo sapiens (Human), UniProt Q8NHM5)                  7.80
13  CCCN1CC[C@H](C)[C@@H](C(=O)c2ccc3cc(C#N)ccc3c2)C1 (stereo in doubt) [Example 163a]  Full length KDM2B (Homo sapiens (Human), UniProt Q8NHM5)                  6.00
14  O=C(c1ccc(Cl)cc1)[C@H]1CCCN(CC2CC2)C1 (stereo in doubt) [Example 116b]  Full length KDM2B (Homo sapiens (Human), UniProt Q8NHM5)                  5.85
15  O=C(c1ccc2cc(CO)ccc2c1)C1CCCN(CC2CC2)C1 (stereo not drawn)  Full length KDM2B (Homo sapiens (Human), UniProt Q8NHM5)                  6.63
16  CS(=O)(=O)N1CCc2cc(C(=O)C3CCCN(C4CCC4)C3)ccc2C1 (stereo not drawn)  Full length KDM2B (Homo sapiens (Human), UniProt Q8NHM5)                  6.79
17  CCC[C@H]1CCN(C2CCC2)C[C@H]1C(=O)c1ccc2cc(OC)ccc2c1 (single isomer, unassigned) [Example 140c]  Full length KDM2B (Homo sapiens (Human), UniProt Q8NHM5)                  8.26
18  NC(=O)c1cc(C(=O)C2CCCN(CC3CC3)C2)cc2ccccc12 (stereo not drawn)  Full length KDM2B (Homo sapiens (Human), UniProt Q8NHM5)                  6.74
19  O=C(c1cnn(-c2ccccc2)c1)C1CCCN(CC2CC2)C1 (stereo not drawn)  Full length KDM2B (Homo sapiens (Human), UniProt Q8NHM5)                  6.18
20  COc1ccccc1C(=O)[C@@H]1CCCN(CC2CC2)C1 (stereo in doubt)  Full length KDM2B (Homo sapiens (Human), UniProt Q8NHM5)                  5.51
21  COc1ccc2cc(C(=O)C3CN(CC4CC4)CCC3C(F)(F)F)ccc2c1 (single isomer, unassigned) [Example 138b]  Full length KDM2B (Homo sapiens (Human), UniProt Q8NHM5)                  5.32
22  COc1ccc2cc(C(=O)C3CN(C4CCC4)CCN3Cc3ccccc3C#N)ccc2c1 (stereo not drawn)  Full length KDM2B (Homo sapiens (Human), UniProt Q8NHM5)                  6.75
23  CCCN1CCCC(C(=O)c2ccccc2OC)C1 (stereo not drawn)  Full length KDM2B (Homo sapiens (Human), UniProt Q8NHM5)                  5.26
24  NC(=O)c1cc(C(=O)C2CCCN(C3CCC3)C2)cc2ccccc12 (stereo not drawn)  Full length KDM2B (Homo sapiens (Human), UniProt Q8NHM5)                  7.00
25  CCCN1CCCC(C(=O)c2cccc(OCc3ccccc3)c2)C1 (stereo not drawn)  Full length KDM2B (Homo sapiens (Human), UniProt Q8NHM5)                  6.08
26  COc1ccc2cc(C(=O)[C@H]3CN(C4CCC4)CC[C@H]3CC(C)C)ccc2c1CC#N (stereo in doubt) [Example 185b]  Full length KDM2B (Homo sapiens (Human), UniProt Q8NHM5)                  8.70
27  CC[C@H]1CCN(C2CCC2)C[C@H]1C(=O)c1ccc2c(CC#N)c(OC)ccc2c1 (stereo in doubt) [Example 183d]  Full length KDM2B (Homo sapiens (Human), UniProt Q8NHM5)                  8.82
28  COc1ccc2cc(C(=O)C3CN(CC4CC4)CCC3OC)ccc2c1 (single isomer, unassigned) [Example 146a]  Full length KDM2B (Homo sapiens (Human), UniProt Q8NHM5)                  6.42
29  COc1ccc2cc(C(=O)[C@@H]3CN(C4CCC4)CC[C@@H]3CC(C)C)ccc2c1 (single isomer, unassigned) [Example 144a]  Full length KDM2B (Homo sapiens (Human), UniProt Q8NHM5)                  8.25
30  CCCN1CCCC(C(=O)c2cccc(OC)c2)C1 (stereo not drawn)  Full length KDM2B (Homo sapiens (Human), UniProt Q8NHM5)                  5.80
31  COCCN1CCCC(C(=O)c2ccc3cc(OC)ccc3c2)C1 (stereo not drawn)  Full length KDM2B (Homo sapiens (Human), UniProt Q8NHM5)                  5.62
32  CCCN1CCCC(C(=O)c2ccccc2-c2ccccc2)C1 (stereo not drawn)  Full length KDM2B (Homo sapiens (Human), UniProt Q8NHM5)                  5.24
33  COc1ccc2cc(C(=O)C3CN(C4CCC4)CCN3Cc3cccc(C(F)(F)F)c3)ccc2c1 (stereo not drawn)  Full length KDM2B (Homo sapiens (Human), UniProt Q8NHM5)                  6.52

====

target: Full length KDM2B (Homo sapiens (Human), UniProt Q8NHM5)
Where a name gives a salt, the structure may show the parent alone.
measurement label: IC50 (nM)

> print(dat)
                                   molecule  observed.measurement
1  COc1ccc2cc(C(=O)C3CCCN(C4CC(F)(F)C4)C3)ccc2c1 (stereo not drawn) [Example 66]                  67.5
2  O=C(c1cccc(Oc2ccccc2)c1)[C@@H]1CCCN(CC2CC2)C1 [Example 29]                   148
3  O=C(c1ccc2cc(CO)ccc2c1)C1CCCN(C2CCC2)C1 (stereo not drawn) [Example 153]                   409
4  Cn1ccc2ccc(C(=O)C3CCCN(CC4CC4)C3)cc21 (stereo not drawn) [Example 119]                  2300
5  COc1ccc2cc(C(=O)C3CN(C4CCC4)CCN3CC3CC3)ccc2c1 (stereo not drawn) [Example 192]                   385
6  CNC(=O)c1cc(C(=O)C2CCCN(CC3CC3)C2)cc2ccccc12 (stereo not drawn) [Example 40]                   626
7  O=C(c1ccc(F)c2ccccc12)C1CCCN(CC2CC2)C1 (stereo not drawn) [Example 127, hydrochloride]                  1900
8  O=C(c1cc2ccccc2s1)C1CCCN(CC2CC2)C1 (stereo not drawn) [Example 120]                   389
9  CCC[C@H]1CCN(C2CCC2)C[C@@H]1C(=O)c1ccc2c(CC#N)c(OC)ccc2c1 (stereo in doubt) [Example 184d]                   263
